Let's go through some recorded pIC50 values for MAGL protein (Homo sapiens) together.
One number for each entry, as −log10 of the molar value.

Some molecules with known pIC50 results, for comparison:
// sample O=C(N1CC2(CC(Cc3ccc4c(C(F)(F)F)cn(CCO)c4n3)C2)C1)N1CC2(CC(c3nc(C4CC4)n[nH]3)C2)C1 , its pIC50 was 10.70

// sample O=C(N1CC2(CC(c3nnc(C4CC4)[nH]3)C2)C1)N1CC2(CN(Cc3ccc(C(F)(F)F)nn3)C2)C1 , its pIC50 was 7.21

Each of the following entries comes with a recorded value; kindly state pIC50 for each.
1. O=C(N1CC2(CC(c3nc(C4(O)CC4)n[nH]3)C2)C1)N1CC2(CC[C@@H](Cc3cccc(S(=O)(=O)C(F)(F)F)c3)C2)C1
2. NC(=O)C1CCCN1c1ccc(C2CN(C(=O)N3CC4(CC(c5nnc(C6CC6)[nH]5)C4)C3)C2)cc1 (centres unmarked)
3. CS(=O)(=O)c1cc(C(F)(F)F)ccc1CC1CC2(C1)CN(C(=O)N1CC3(CC(c4ncn[nH]4)C3)C1)C2

1: 10.00; 2: 6.61; 3: 5.88
